A collection of binders and their measured pEC50
# experimental_target: T1, human SIRPA v1 on BWZ cells (BWZ-huSIRPA) (human, UniProt P78324 31-504)
# T1 construct: also called BWZ cells overexpressing human SIRPA; BWZ-huSIRPA v1 cells
# T1 sequence (P78324 31-504): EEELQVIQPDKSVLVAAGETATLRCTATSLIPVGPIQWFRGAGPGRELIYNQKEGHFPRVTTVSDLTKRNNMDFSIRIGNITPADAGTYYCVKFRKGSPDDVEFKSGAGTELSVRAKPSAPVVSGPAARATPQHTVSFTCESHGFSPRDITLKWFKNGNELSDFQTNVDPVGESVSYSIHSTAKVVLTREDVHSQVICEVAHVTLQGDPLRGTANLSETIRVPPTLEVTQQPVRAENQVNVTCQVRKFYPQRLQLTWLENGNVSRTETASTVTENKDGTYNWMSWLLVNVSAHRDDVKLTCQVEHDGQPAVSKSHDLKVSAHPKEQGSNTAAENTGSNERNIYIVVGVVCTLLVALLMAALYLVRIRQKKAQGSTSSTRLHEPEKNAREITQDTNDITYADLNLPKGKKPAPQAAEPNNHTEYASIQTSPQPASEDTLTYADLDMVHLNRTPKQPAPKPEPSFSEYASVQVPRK
# method: flow cytometry titration on BWZ cells overexpressing huSIRPA, 4 C
# log scale: pEC50 equals minus log10 of the concentration in mol/L

Answered cases to consult:
binder	experimental_endpoint	experimental_value
mAb 14.70.2 (antibody, human IgG4, V domains shown, also called h3F9 H1/L2; h3F9 IgG4) VH: EVQLLESGGGLVQPGGSLRLSCAASGFTFSSYAMSWVRQAPGKGLEWVSTISDYGGSYTYYADSVKGRFTISRDNSKNTLYLQMNSLRAEDTAVYYCAKPPYDDYYGGFAYWGQGTLVTVSS VL: DIQLTQSPSSLSASVGDRVTITCRASKSVSSSGYSYMHWYQQKPGKAPKLLIYLASNLESGVPSRFSGSGSGTDFTLTISSVQPEDFATYYCQHNRELPCTFGQGTKLEIK	pEC50	9.01
mouse anti-SIRPA antibody m3F9 (antibody, mouse IgG1, V domains shown, hybridoma-derived murine IgG1; also called Parental m3F9 IgG1; 3F9 mIgG1) VH: EVKLVESGGGLVKPGGSLKLSCAASGFTFSSYAMSWVRQTPEKRLEWVATISDYGGSYTYYPDSVKGRFTISRDNAKYTLYLQMSSLRSEDTALYYCARPPYDDYYGGFAYWGQGTLVTVSA VL: DIVLTQSPASLAVSLGQRATISCRASKSVSSSGYSYMHWYQQKPGQPPKLLIYLASNLESGVPARFSGSGSGTDFTLNIHPVEEEDAATYYCQHNRELPCTFGGGTKLEIK	pEC50	8.68
mAb 14.70.4 (antibody, human IgG4, V domains shown, also called h3F9 H2/L1; h3F9 IgG4) VH: EVQLLESGGGLVQPGGSLRLSCAASGFTFSSYAMSWVRQAPGKGLEWVATISDYGGSYTYYADSVKGRFTISRDNSKNTLYLQMNSLRAEDTAVYYCARPPYDDYYGGFAYWGQGTLVTVSS VL: DIQMTQSPSSLSASVGDRVTITCRASKSVSSSGYSYMHWYQQKPGKAPKLLIYLASNLESGVPSRFSGSGSGTDFTLTISSLQPEDFATYYCQHNRELPCTFGQGTKLEIK	pEC50	8.79

Continue with the binder presented below.
Form field pEC50, entry mAb 14.70.1 (antibody, human IgG4, V domains shown, also called h3F9 H1/L1; h3F9 IgG4) VH: EVQLLESGGGLVQPGGSLRLSCAASGFTFSSYAMSWVRQAPGKGLEWVSTISDYGGSYTYYADSVKGRFTISRDNSKNTLYLQMNSLRAEDTAVYYCAKPPYDDYYGGFAYWGQGTLVTVSS VL: DIQMTQSPSSLSASVGDRVTITCRASKSVSSSGYSYMHWYQQKPGKAPKLLIYLASNLESGVPSRFSGSGSGTDFTLTISSLQPEDFATYYCQHNRELPCTFGQGTKLEIK : 8.97
